# study.target: Sodium-dependent dopamine transporter (Homo sapiens)
# test.method.notes: modulators of human DAT uptake with cocaine – cell-based, LLC-PK1 hDAT, [14C]-dopamine uptake, MLSMR, cocaine antagonist project, primary screen (AID 449768);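 further: scored against the spread of the other compound wells on the same plate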
# assay.conditions: LLC-PK1 hDAT cells, [14C]-dopamine uptake with cocaine IC80; at 10 µM; actives deviate in either direction
The campaign covered roughly 110,000 compounds. About 1,400 (1.3%) were called active. Only a selection was taken, and actives are over-represented in it overall.
Met if B-score is below -0.7. Not met if not; exact matches included in Not met.

Study these solved cases before continuing.
Cc1cc(C)n(-c2ccc(Cl)c(C(=O)O)n2)n1	Met
C[C@@H]1NC(=O)c2cc([N+](=O)[O-])cc(F)c2NCCC[C@@H](C(N)=O)NC(=O)[C@H](CC(N)=O)NC1=O	Not met
CNC(=O)c1[nH]cnc1C(=O)N[C@@H](CC(C)C)C(=O)OCc1ccccc1	Not met
COC(=O)CCCC1=CC2=CC(=O)C(C)(OC(=O)c3cccs3)C(=O)C2=CN1CC1CC1 (stereo not given)	Met

Problem: Quick check: B-score of NC(=O)[C@H]1CC2(CC(c3cccc(NC(=O)[C@H]4CCC(=O)N4)c3)=NO2)CN1C(=O)c1ccccc1C(=O)c1ccccc1 (stereo not given in full) under -0.7?
Solution: Met

* * *

# study.target: Sodium-dependent dopamine transporter (Homo sapiens)
# test.method.notes: modulators of human DAT uptake with cocaine – cell-based, LLC-PK1 hDAT, [14C]-dopamine uptake, MLSMR, cocaine antagonist project, primary screen (AID 449768);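 further: scored against the spread of the other compound wells on the same plate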
# assay.conditions: LLC-PK1 hDAT cells, [14C]-dopamine uptake with cocaine IC80; at 10 µM; actives deviate in either direction
The whole screen tested about 110,000 compounds, of which about 1,400 (1.3%) were called active. The entries come from a sample that favours actives as a whole.
Collected B-score values appear next to each entry.
# print the numeric value only

CCCc1nc2ccccc2c(C(=O)OCc2nnc(-c3cc(OC)c(OC)c(OC)c3)o2)c1CC	0.135

Problem: Fill in: B-score of CCC(=O)NCCc1nc2ccccc2n1CC is ___
Solution: -0.73

Problem: Would you mind telling me what B-score value was observed for COC(=O)c1ccccc1NC(=O)c1ccccc1NS(C)(=O)=O ?
Solution: 0.686

* * *

# study.target: Sodium-dependent dopamine transporter (Homo sapiens) (UniProt Q01959)
# Sequence (Q01959 whole entry, looked up): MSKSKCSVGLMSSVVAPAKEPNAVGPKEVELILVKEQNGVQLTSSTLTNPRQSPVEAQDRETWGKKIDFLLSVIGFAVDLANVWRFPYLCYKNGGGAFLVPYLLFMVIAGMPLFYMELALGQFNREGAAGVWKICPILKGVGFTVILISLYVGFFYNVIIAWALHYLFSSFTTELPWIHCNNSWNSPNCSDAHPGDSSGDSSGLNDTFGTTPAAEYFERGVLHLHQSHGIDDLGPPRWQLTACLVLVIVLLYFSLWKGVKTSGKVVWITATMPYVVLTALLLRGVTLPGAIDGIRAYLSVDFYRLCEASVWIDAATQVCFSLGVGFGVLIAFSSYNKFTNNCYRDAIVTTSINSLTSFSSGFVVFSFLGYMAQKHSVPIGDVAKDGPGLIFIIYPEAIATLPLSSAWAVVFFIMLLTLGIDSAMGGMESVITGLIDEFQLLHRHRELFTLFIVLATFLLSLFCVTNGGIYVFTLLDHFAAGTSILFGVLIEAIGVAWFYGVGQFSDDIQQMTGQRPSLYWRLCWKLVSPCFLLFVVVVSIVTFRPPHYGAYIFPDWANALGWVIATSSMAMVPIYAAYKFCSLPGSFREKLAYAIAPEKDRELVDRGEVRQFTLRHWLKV
# test.method.notes: modulators of human DAT uptake with cocaine – cell-based, LLC-PK1 hDAT, [14C]-dopamine uptake, MLSMR, cocaine antagonist project, primary screen (AID 449768);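 further: scored against the spread of the other compound wells on the same plate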
# assay.conditions: LLC-PK1 hDAT cells, [14C]-dopamine uptake with cocaine IC80; at 10 µM; actives deviate in either direction
Among all 110,000 compounds or so, about 1,400 (1.3%) were called active.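 Rule for the calls: active = Z score or B-score, a plate-position-corrected score, falls beyond the plate's 99.7% confidence bounds, in either direction; inactive = both scores lie inside the 99.7% bounds.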 The full list was thinned out, with actives kept by preference.
Would you mind answering with one of these outcomes? active, inactive

Problem: How was O=C(COc1ccccc1)NCc1ccc2c(c1)OCO2 classified in this test?
Solution: inactive

Problem: Just curious, what result did O=C(CCNS(=O)(=O)c1ccccc1C(F)(F)F)NCc1ccc2c(c1)OCO2 get here?
Solution: active

Problem: Kindly provide the recorded test outcome for the following molecule: COC(=O)C(C)n1cnc2c(nnn2-c2cccc(Cl)c2)c1=O (stereo not drawn)
Solution: inactive

Problem: Any idea what this test logged for Cc1nc(SCC(=O)N2CCc3ccccc3C2)c2c(C)c(C)sc2n1 ?
Solution: inactive

Problem: Record request — test call for O=C(O)c1ccccc1NC(=S)NC(NC(=O)c1ccccc1[N+](=O)[O-])C(Cl)(Cl)Cl (stereo not drawn)
Solution: active

Problem: How was Cc1cc(C)cc(OCC(=O)Nc2nc3ccc([N+](=O)[O-])cc3s2)c1 classified in this test?
Solution: inactive

Problem: Recorded test call requested for C=CCC1(C(=O)N(C)Cc2ccccc2)CCN(C(=O)OC(C)(C)C)CC1
Solution: inactive

* * *

Some compounds, each annotated with its measured B-score.
# study.target: Sodium-dependent dopamine transporter (Homo sapiens)
# test.method.notes: modulators of human DAT uptake with cocaine – cell-based, LLC-PK1 hDAT, [14C]-dopamine uptake, MLSMR, cocaine antagonist project, primary screen (AID 449768);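 further: scored against the spread of the other compound wells on the same plate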
# assay.conditions: LLC-PK1 hDAT cells, [14C]-dopamine uptake with cocaine IC80; at 10 µM; actives deviate in either direction
About 1,400 (1.3%) of roughly 110,000 compounds were called active. The entries come from a sample that favours actives as a whole.
Response field accepts a number only; no unit should be typed.

Problem: Item: COc1ccc(C2/C=C\CN(S(=O)(=O)c3cccs3)CC(=O)N2Cc2ccc(F)cc2)cc1 (stereo unspecified) Test system: Sodium-dependent dopamine transporter (Homo sapiens) Read-out: B-score Value: ?
Solution: 0.769

* * *

# study.target: Sodium-dependent dopamine transporter (Homo sapiens) (UniProt Q01959)
# test.method.notes: modulators of human DAT uptake with cocaine – cell-based, LLC-PK1 hDAT, [14C]-dopamine uptake, MLSMR, cocaine antagonist project, primary screen (AID 449768);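 further: scored against the spread of the other compound wells on the same plate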
# assay.conditions: LLC-PK1 hDAT cells, [14C]-dopamine uptake with cocaine IC80; at 10 µM; actives deviate in either direction
The campaign covered roughly 110,000 compounds. About 1,400 (1.3%) were called active.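 The calls were made as follows: active = Z score or B-score, a plate-position-corrected score, falls beyond the plate's 99.7% confidence bounds, in either direction; inactive = both scores lie inside the 99.7% bounds.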 The full list was thinned out, with actives kept by preference.
Classes to choose from: Y (active), N (inactive)

Problem: Please state the recorded outcome for this molecule: CCO[C@H]1OC(C(=O)N2CCN(Cc3ccccc3)CC2)=C[C@@H](c2cn(C(C)=O)c3ccccc23)[C@@H]1CCCO
Solution: N

Problem: Answer briefly: the call reported for CCC1(CC)C(=O)C2=C3C1[C@H](C(=O)OC)C=C(C(=O)OC)C[C@H]3[C@H]1C(=O)N(Cc3ccccc3)C(=O)[C@H]1[C@H]2C (stereo not given in full) in this assay.
Solution: N

Problem: # lookup: test call for C=CCSc1nnc2c(n1)-c1cccc3cccc-2c13
Solution: N

Problem: What call does the record list for O=C1c2ccccc2S(=O)(=O)c2cc(N3CCN(c4ccccn4)CC3)ccc21 ?
Solution: N

Problem: Recorded test call requested for COC(=O)c1ccc(C(NC(=O)OCc2ccccc2)/C(F)=C/[C@@H](C)C(=O)O)cc1 (stereo not given in full)
Solution: N

Problem: Assay result, entry Cc1ccc(/C=N/NC(=O)C2=NNC(c3ccccc3)(c3ccccc3)C2)c(O)c1 — outcome?
Solution: N

Problem: # fetch the recorded call for O=[N+]([O-])c1ccccc1NCc1ccc(Cl)cc1 here
Solution: N

Problem: What is the recorded call for this molecule in the test? CCOC(=O)c1c(NC(=O)C(C)Sc2c[nH]c3ccccc23)sc2c1CCC2 (stereo not given)
Solution: N

Problem: // outcome(item) with item = Cc1ccccc1NC(=O)c1cc(S(=O)(=O)N2CCOCC2)cs1
Solution: Y

Problem: Returns: the outcome recorded for Cc1nc(SCC(=O)N2CC(=O)Nc3ccccc32)c2c(C)c(C)sc2n1 in this assay.
Solution: Y

Problem: Which outcome was assigned to Cn1cc(CCC(=O)NCc2ccc3c(c2)OCO3)c2ccccc21 in this test?
Solution: N

Problem: Could you please tell me the result logged for C[C@@H]1CC[C@]2(O[C@@H](CCO)C[C@H](O)[C@H]2O)O1 in this assay?
Solution: N

Problem: Per the records of this test, what outcome belongs to CC(=O)c1sc(NC(=O)c2cccc3ccccc23)nc1C ?
Solution: N

Problem: Hey, what did the test say about Nc1nonc1-c1nc2ccccc2n1CCC(=O)O ?
Solution: N

Problem: Each molecule tested received a call. Report the one for CCOC(=O)CNC(=O)CSc1nnc(COc2ccc(Cl)cc2)n1CC .
Solution: N

Problem: What did the test return for Cc1nc(SCC(=O)Nc2cc(C)on2)c2c(C)c(C)sc2n1 ?
Solution: N

Problem: Entry CC(C)C[C@H](CO)Nc1nc(N(C)c2cccc(Cl)c2)c2ncn(C(C)C)c2n1 : call = ?
Solution: Y

* * *

B-score overview
# study.target: Sodium-dependent dopamine transporter (Homo sapiens) (UniProt Q01959)
# test.method.notes: modulators of human DAT uptake with cocaine – cell-based, LLC-PK1 hDAT, [14C]-dopamine uptake, MLSMR, cocaine antagonist project, primary screen (AID 449768);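 further: scored against the spread of the other compound wells on the same plate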
# assay.conditions: LLC-PK1 hDAT cells, [14C]-dopamine uptake with cocaine IC80; at 10 µM; actives deviate in either direction
The whole screen tested about 110,000 compounds, of which about 1,400 (1.3%) were called active. Shown is part of a subset that was picked to be rich in actives.
// print number alone

CCO[C@H]1OC(C(=O)Nc2ccccc2)=C[C@@H](C2CC2)[C@@H]1CCCO	-0.987
CCOC(=O)c1cc(-c2nnc(-c3cc(OC)c(OC)c(OC)c3)o2)c(C)nc1C	1.41
COC(C[C@@H]1O[C@@H]1C(=O)[C@H](C)OCc1ccccc1)OC	-1.33

Problem: Write down the reported B-score of C#Cc1ccc([C@@H]2C=C(C(=O)O)O[C@H](OCCCCO)C2)cc1 , test system: Sodium-dependent dopamine transporter (Homo sapiens) (UniProt Q01959).
Solution: -0.622

Problem: GET /values?readout=B-score&system=Sodium-dependent dopamine transporter (Homo sapiens) (UniProt Q01959)&item= Nc1nonc1-c1nc2ccccc2n1Cc1ccc(F)cc1
Solution: -0.103

Problem: Kindly state the measured B-score obtained for COC(=O)C1=C(C(=O)OC)[C@@H]2N(C)c3ccccc3[C@@]23C[C@@H](C(=O)OC)N(C(C)=O)C3=N1 with Sodium-dependent dopamine transporter (Homo sapiens) (UniProt Q01959).
Solution: -0.544

Problem: What value of B-score on Sodium-dependent dopamine transporter (Homo sapiens) (UniProt Q01959) does CCOC(=O)CNC(=O)CSc1nc2cccnc2n1CC have?
Solution: -8.17

Problem: Give recorded B-score with Sodium-dependent dopamine transporter (Homo sapiens) (UniProt Q01959) for the following compound: CC(C)n1cnc2c(Nc3cccc(Cl)c3)nc(N(CCO)CCCO)nc21
Solution: 0.4
